Target: Proteinase-activated receptor 4 (Homo sapiens)
Assay: Antagonist activity at PAR4 in human platelet rich plasma assessed as inhibition of gamma-PAR4 agonist peptide (AYPGKF-NH2)-induced platelet aggregation at 200 nM preincubated for 5 mins followed by peptide addition and measured after 5 mins by aggregometer relative to control
Assay type: cell-based
Conditions: filed as antagonist, time 10.0 min
Please mark Met if the recorded inhibition is equal to or greater than 80%, and Not met if it falls below.

Input: Kindly determine if inhibition recorded for `COc1cc(Cl)c2nc(-c3cc(C)cc4cnc(C)nc34)sc2c1` is above or exactly 80%.
Output: Met

Input: Check this molecule for inhibition at or above 80%: `CNc1ncc2cc(C)cc(-c3nc4c(Cl)cc(OC)cc4s3)c2n1`
Output: Not met

Input: Could you verify whether the entry `COCOc1ncc2c(-c3nc4c(Cl)cc(OC)cc4s3)cc(C)cc2n1` shows inhibition of no less than 80%?
Output: Met

Input: Is it the case that `COc1ncc2c(-c3nc4cc(F)c5c(c4s3)C[C@H](COC(=O)Nc3cccc(C#N)c3)O5)cc(C)cc2n1` has inhibition reaching or exceeding 80%?
Output: Met

Input: Tell me whether inhibition is at least 80% here: `COc1ncc2c(-c3nc4cc(F)c5c(c4s3)C[C@H](COC(=O)Nc3ccc(OC)c(F)c3)O5)cc(C)cc2n1`
Output: Not met

Input: Check this molecule for inhibition at or above 80%: `COCOc1ncc2c(-c3nc4c(F)cc(OC)cc4s3)cc(C)cc2n1`
Output: Not met

Input: Could you verify whether the entry `COc1cc(Cl)c2nc(-c3cc(C)cc4cnc(SC)nc34)sc2c1` shows inhibition of no less than 80%?
Output: Not met

Input: Dear colleague, could you confirm whether `COCc1ncc2c(-c3nc4cc(F)c(OCCOC(=O)Nc5cc(F)cc(C#N)c5)cc4s3)cc(C)cc2n1` has inhibition at or above 80%?
Output: Met

Input: In plain terms: is recorded inhibition at least 80% for `COc1ncc2c(-c3nc4cc(F)c5c(c4s3)C[C@H](COC(=O)Nc3cc(F)cc(C#N)c3)O5)cc(C)cc2n1` ?
Output: Met

Input: Is reported inhibition greater than or equal to 80% here: `COCOc1ncc2c(-c3nc4ccc(OC)cc4s3)cc(C)cc2n1`
Output: Not met

Input: Reported inhibition reaches at least 80% for `COc1ncc2c(-c3nc4cc(F)c5c(c4s3)C[C@H](COC(=O)Nc3ccc(C)cc3F)O5)cc(C)cc2n1` ?
Output: Met

Input: Entry `COc1cc2sc(-c3cc(C)cc4nc(SC)ncc34)nc2cc1F` : is its inhibition no less than 80%?
Output: Not met
